assay: qHTS for Inhibitos of Bacillus subtilis Sfp phosphopantetheinyl transferase (PPTase): Chemistry Optimization Followup in B. Subtilis 168; settings: B. subtilis 168 growth, BacTiter-Glo luminescence, 5 h; series mostly up to 114 µM
Inconclusive results are not listed. Active and inactive are the calls of the source. Calls follow the shape of the dose curve; as a rule, active = well fitted inhibition curve with a large enough effect; inconclusive = small, poorly fitted or top-dose-only effect; inactive = no such curve, though single readings can be large or run the other way.
parameter: Potency

# compound, parameter, recorded.result
records = [
    ("Cc1ccnc(NC(=S)N2CCc3ccccc3C2)c1", "Potency", "59.1 µM (active)"),
    ("Cc1cccc(NC(=S)N2CCN(c3cccc(C(F)(F)F)c3)CC2)c1", "Potency", "inactive"),
    ("Cc1ccnc(NC(=S)N2CC3CN(c4cccc(C(F)(F)F)c4)CC3C2)c1 (stereo unspecified)", "Potency", "11.8 µM (active)"),
    ("Cc1ccnc(NC(=S)N2CCN(c3cc(F)cc(Cl)c3)CC2)c1", "Potency", "5.91 µM (active)"),
    ("Cc1cc(C)nc(NC(=S)N2CCN(c3ncccc3C#N)CC2)c1", "Potency", "inactive"),
]

Give measured Potency for every item shown.
1. Cc1cc(C)nc(NC(=S)N2CCN(c3cc(F)cc(F)c3)CC2)c1
2. Cc1ccnc(NC(=S)N2CCCN(c3cccc(C(F)(F)F)c3)CC2)c1
3. Cc1ccnc(NC(=S)NC2CN(c3cccc(C(F)(F)F)c3)C2)c1
4. COc1cccc(NC(=S)N2CCN(c3ccc(Cl)c(Cl)c3)CC2)n1
5. FC(F)(F)c1cccc(N2CCN(C(=S)Nc3ncnc4ccccc34)CC2)c1
6. Cc1cc(C)nc(NC(=S)N2CCN(c3ccc(Cl)nn3)CC2)c1

Result ::
1: 37.3 µM (active); 2: 16.7 µM (active); 3: 46.9 µM (active); 4: inactive; 5: 6.63 µM (active); 6: inactive

src = PubChem BioAssay AID540352
